molecular target: PI 3-kinase gamma (Homo sapiens); test: TR-FRET Adapta assay, assay E; type: biochemical; conditions: read-out: Assay E PI3Kγ IC50
Sequence (P48736 whole entry): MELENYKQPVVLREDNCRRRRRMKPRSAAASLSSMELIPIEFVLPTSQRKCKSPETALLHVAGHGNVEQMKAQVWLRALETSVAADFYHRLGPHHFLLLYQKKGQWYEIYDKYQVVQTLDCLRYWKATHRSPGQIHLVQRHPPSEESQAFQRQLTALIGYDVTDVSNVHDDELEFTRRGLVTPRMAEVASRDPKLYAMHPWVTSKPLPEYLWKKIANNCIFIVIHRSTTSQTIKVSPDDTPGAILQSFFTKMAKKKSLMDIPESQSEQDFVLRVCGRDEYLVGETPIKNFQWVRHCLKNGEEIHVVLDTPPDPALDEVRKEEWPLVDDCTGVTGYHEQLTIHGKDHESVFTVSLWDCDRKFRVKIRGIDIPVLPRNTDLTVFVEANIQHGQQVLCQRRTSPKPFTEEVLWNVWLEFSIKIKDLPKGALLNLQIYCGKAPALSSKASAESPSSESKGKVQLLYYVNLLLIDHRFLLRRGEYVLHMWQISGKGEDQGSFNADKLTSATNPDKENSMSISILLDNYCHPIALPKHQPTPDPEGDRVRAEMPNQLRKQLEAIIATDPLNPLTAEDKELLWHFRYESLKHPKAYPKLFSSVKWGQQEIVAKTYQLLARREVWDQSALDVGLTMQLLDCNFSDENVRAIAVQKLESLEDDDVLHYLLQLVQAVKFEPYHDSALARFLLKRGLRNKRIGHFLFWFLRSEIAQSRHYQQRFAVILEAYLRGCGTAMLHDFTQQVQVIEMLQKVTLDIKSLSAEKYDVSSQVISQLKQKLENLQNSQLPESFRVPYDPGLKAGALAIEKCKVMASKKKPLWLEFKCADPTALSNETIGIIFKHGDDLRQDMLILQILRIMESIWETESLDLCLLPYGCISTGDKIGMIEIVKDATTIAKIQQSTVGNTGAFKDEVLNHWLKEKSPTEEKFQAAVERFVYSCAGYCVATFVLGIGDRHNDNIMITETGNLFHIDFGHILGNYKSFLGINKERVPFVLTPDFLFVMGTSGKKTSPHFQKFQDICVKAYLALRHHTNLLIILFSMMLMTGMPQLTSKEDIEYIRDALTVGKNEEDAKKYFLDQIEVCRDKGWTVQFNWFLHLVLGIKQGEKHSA
MEASURED_QUANTITY: IC50 (nM)
One number for each entry, in nM.

The cases that follow already have their IC50 on record.
Cc1ccc(S(=O)(=O)NCC(F)(F)F)cc1-c1cnc(N)c(-n2cncn2)n1; 24
Cc1ccc(S(=O)(=O)NCC2COCCN2C)cc1-c1cnc(N)c(-c2cn(C)nc2C)n1 (single isomer, unassigned) [Example 128.3b]; 55
Cc1ccc(S(=O)(=O)NC2CCC2)cc1-c1cnc(N)c(-n2cncn2)n1; 32

Below is a list of compounds. For each, state its recorded IC50.
1. Cc1ccc(S(=O)(=O)N2CC3(CC(O)C3)C2)cc1-c1cnc(N)c(-n2cncn2)n1
2. Cc1ccc(S(=O)(=O)NCCC(C)(C)O)cc1-c1cnc(N)c(-n2cnc(C3CC3)n2)n1
3. Cc1cc(-c2nc(-c3cc(S(=O)(=O)NCC4CCN(C)C4)ccc3C)cnc2N)ccn1 (centres unmarked)
4. CCn1cc(-c2nc(-c3cc(S(=O)(=O)NCCC(C)(C)O)ccc3C)cnc2N)cn1
5. CC(C)(O)CNS(=O)(=O)c1cccc(-c2cnc(N)c(-n3cncn3)n2)c1
6. Cc1ccc(S(=O)(=O)NCC2COC2)cc1-c1cnc(N)c(-n2cncn2)n1

result:
[210, 3, 41, 13, 2100, 42]

Below is a list of compounds. For each, state its recorded IC50.
1. Cc1ccc(S(=O)(=O)N2CCC(F)CC2)cc1-c1cnc(N)c(-n2cncn2)n1
2. Cc1ccc(S(=O)(=O)NCCC(C)(C)O)cc1-c1cnc(N)c(-c2cc[nH]n2)n1
3. Cc1noc(-c2nc(-c3cc(S(=O)(=O)NC[C@H]4C[C@@H](O)C4)ccc3C)cnc2N)n1
4. Cc1ccc(S(=O)(=O)NC(C)CO)cc1-c1cnc(N)c(-n2cncn2)n1 (centres unmarked)
5. Cc1cc(Cl)c(S(=O)(=O)NCC(C)(C)O)cc1-c1cnc(N)c(-n2cncn2)n1
6. Cc1cn(-c2nc(-c3cc(S(=O)(=O)NCCCO)ccc3C)cnc2N)cn1
7. Cc1ncc(-c2nc(-c3cc(S(=O)(=O)NC[C@H]4C[C@@H](O)C4)ccc3C)cnc2N)s1 [Example 20a]

result:
[180, 69, 92, 800, 22, 57, 7]

Below is a list of compounds. For each, state its recorded IC50.
1. Cc1csc(-c2nc(-c3cc(S(=O)(=O)NCC(C)(C)O)ccc3C)cnc2N)n1
2. CCCc1noc(-c2nc(-c3cc(S(=O)(=O)N[C@H]4CC[C@H](O)CC4)ccc3C)cnc2N)n1

result:
1. 77
2. 16

Below is a list of compounds. For each, state its recorded IC50.
1. Cc1ncc(-c2nc(-c3cc(S(=O)(=O)NCC4COC4)ccc3C)cnc2N)s1
2. Cc1ccc(S(=O)(=O)NCC2(C)COC2)cc1-c1cnc(N)c(-n2cncn2)n1
3. Cc1nnc(-c2nc(-c3cc(S(=O)(=O)NCC(C)(C)O)ccc3C)cnc2N)o1
4. CC(C)(O)CNS(=O)(=O)c1ccc(Cl)c(-c2cnc(N)c(-n3cncn3)n2)c1
5. Cc1ncc(-c2nc(-c3cc(S(=O)(=O)NCC4(O)COC4)ccc3C)cnc2N)s1

result:
1: 11; 2: 9; 3: 78; 4: 83; 5: 5

Below is a list of compounds. For each, state its recorded IC50.
1. Cc1ccc(S(=O)(=O)NCCC(C)(C)O)cc1-c1cnc(N)c(-c2ccc(N3CCCCC3)nc2)n1
2. Cc1cc(-c2nc(-c3cc(S(=O)(=O)NCCN4CCOCC4)ccc3C)cnc2N)ccn1
3. Cc1ccc(S(=O)(=O)NCCCCCO)cc1-c1cnc(N)c(-n2cncn2)n1
4. Cc1cc(-c2nc(-c3cc(S(=O)(=O)NCC4CCCOC4)ccc3C)cnc2N)ccn1 (centres unmarked)
5. Cc1ccc(S(=O)(=O)NCCC(C)(C)O)cc1-c1cnc(N)c(-c2cnn(CCC(C)C)c2)n1
6. COCCCNS(=O)(=O)c1ccc(C)c(-c2cnc(N)c(-c3ccnc(C)c3)n2)c1
7. Cc1cc(-c2nc(-c3cc(S(=O)(=O)N4CC5(CNC5)C4)ccc3C)cnc2N)ccn1
8. Cc1cc(-c2nc(-c3cc(S(=O)(=O)N[C@H]4CC[C@@H](O)CC4)ccc3C)cnc2N)ccn1

result:
1: 525; 2: 140; 3: 1600; 4: 59; 5: 37; 6: 173; 7: 540; 8: 64

query: What value of measured IC50 is listed for Cc1ccc(S(=O)(=O)N[C@H]2CC[C@H](O)CC2)cc1-c1cnc(N)c(-c2ccnc(F)c2)n1 ?
result: 40
